Molecular target: IRAK1 (Homo sapiens, UniProt P51617)
Construct: lines 1-140) and Reaction Biology
Sequence (P51617 whole entry): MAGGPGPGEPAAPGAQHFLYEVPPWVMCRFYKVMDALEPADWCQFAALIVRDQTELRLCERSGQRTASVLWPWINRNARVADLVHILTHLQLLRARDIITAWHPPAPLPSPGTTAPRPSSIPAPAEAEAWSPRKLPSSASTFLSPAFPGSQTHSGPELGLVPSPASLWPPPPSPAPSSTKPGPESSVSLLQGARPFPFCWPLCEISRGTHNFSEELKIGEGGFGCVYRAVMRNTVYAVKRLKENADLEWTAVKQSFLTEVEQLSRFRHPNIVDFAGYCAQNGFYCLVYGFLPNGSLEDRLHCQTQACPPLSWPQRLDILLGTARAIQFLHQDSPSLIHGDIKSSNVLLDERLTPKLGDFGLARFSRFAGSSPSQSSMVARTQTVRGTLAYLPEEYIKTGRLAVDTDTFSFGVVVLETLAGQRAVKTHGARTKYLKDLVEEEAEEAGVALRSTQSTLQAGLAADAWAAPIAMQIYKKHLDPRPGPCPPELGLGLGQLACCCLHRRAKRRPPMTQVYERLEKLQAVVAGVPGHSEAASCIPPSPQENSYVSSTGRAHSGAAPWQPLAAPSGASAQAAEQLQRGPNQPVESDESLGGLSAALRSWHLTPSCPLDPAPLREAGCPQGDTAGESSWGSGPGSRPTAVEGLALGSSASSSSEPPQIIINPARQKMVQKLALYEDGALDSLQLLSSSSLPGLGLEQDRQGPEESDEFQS
Test: Dundee kinase panel
Type: biochemical
Details: read-out: residual activity
property: remaining activity at 1 µM

molecule: COCCOc1ccc(-c2cn(-c3ccccc3)c3nc[nH]c(=O)c23)cc1 [DMX-5804]
result: 100%
--
molecule: O=C1Nc2ccc(I)cc2/C1=C/c1cc(Br)c(O)c(Br)c1 [GW5074]
result: 57%
--
molecule: Oc1ncnc2c1c(-c1ccccc1)cn2-c1ccccc1 [F1386-0303]
result: 107%
--
molecule: O=C1Cc2c([nH]c3ccc(Br)cc23)-c2ccccc2N1 [Kenpaullone]
result: 39%

// provenance: paper PMC6458995
